Data origin, for the record: PubChem BioAssay

For each entry below, report its Her2 level value.
Assayed target: Receptor tyrosine-protein kinase erbB-2 (Homo sapiens)
Assay details: reducers of endogenous Her2 protein level, primary screen, SKBR3 breast tumor cells, AlphaScreen, ATP viability (AID 461);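 note: lower value means less Her2 protein in the cells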
Run conditions: 18-24 h, at 10 µM, stronger effect = lower value
Activity calls are given as the source filed them.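 Rule for the calls: active = Her2 level under about 52% in both replicate screens, with viability over 70% of control (limit read from the data); inconclusive = Her2 under the limit in one screen only, or viability under 70%; inactive = Her2 level above the set limit.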

Problem: // lookup Her2 level for "Cc1ccc(S(=O)(=O)C2(C(=O)NC3CCCC3)CC2)cc1"
Solution: 87.5% (inactive)

Problem: What Her2 level value was documented for this compound, "CCc1nnc(NC(=O)c2ccc(S(=O)(=O)NCC(C)C)cc2)s1" ?
Solution: 89% (inactive)

Problem: Endpoint output: Her2 level of CCOC(=O)C1=C(CN2CCOCC2)NC(=O)NC1c1cc(C)ccc1C (centres undefined) . Value?
Solution: 89% (inactive)

Problem: Fill in the blank: the reported Her2 level of COc1ccc(NC(=O)C(C)Oc2ccc(/C(C)=N\O)cc2)cc1 (centres undefined) is ____.
Solution: 92% (inactive)

Problem: State the recorded Her2 level for this entry: "CCCCC(=O)Nc1nn(CCC)c2nc3ccccc3cc12"
Solution: 92% (inactive)

Problem: Which Her2 level value is on record for "N#Cc1nc(-c2ccco2)oc1NCc1ccco1" ?
Solution: 89% (inactive)

Problem: Her2 level lookup needed for "O=C(CN(CCc1ccccc1)C(=O)CN1C(=O)COc2ccccc21)NCc1ccco1" , thanks.
Solution: 87.5% (inactive)

Problem: What value of measured Her2 level is listed for CCOC(=O)C1CCCN(CCCc2ccccc2)C1 (centres undefined) ?
Solution: 91% (inactive)

Problem: Quick check: Her2 level of CN1CCN(CCCNC(=O)C2CC(=O)N(C3CCCCC3)C2)CC1 (centres undefined) ?
Solution: 90% (inactive)

Problem: Entry under review: "CC(=O)c1ccc(NC(=O)c2noc3c2CCCCC3)cc1" . Reported Her2 level?
Solution: 88% (inactive)

Problem: Which Her2 level is listed for CCCn1c(NC(=O)C2COc3ccccc3O2)nc2ccccc21 (centres undefined) ?
Solution: 90% (inactive)

Problem: Which Her2 level value belongs to "CCCOc1ccccc1NC(=O)c1c(-c2ccccc2)noc1C" ?
Solution: 92% (inactive)

Problem: Which Her2 level is reported for this compound? "Cc1cc(NC(=O)c2ccccc2Oc2ccccc2)no1"
Solution: 92.5% (inactive)

Problem: Field request: Her2 level | item: "CCOC(=O)c1cccc(NC(=O)CSc2nnc(-c3ccoc3C)n2CCOC)c1"
Solution: 92% (inactive)

---

Assay details: reversal of MRP1-mediated doxorubicin resistance, pilot screen, H69AR cells, doxorubicin co-treatment (AID 601)
Run conditions: H69AR cells + 2 uM doxorubicin, CellTiter-Glo, 72 h; measured here: viability with 2 uM doxorubicin; at 10 µM; stronger effect = lower value
Would you mind telling me the reported viability of each entry?

Problem: Request the reported viability associated with "Cn1c(SCC(N)=O)nnc1C1CCN(C(=O)NCc2ccccc2)CC1"
Solution: 87.8%

Problem: GET /values?readout=viability&item= "Oc1cc(NCc2cccnc2)ccc1-c1nc2ccccc2o1"
Solution: 90.1%

Problem: Which measured viability value corresponds to "CCOC(=O)N1CCN(c2c(NCC3CCN(Cc4cccc(C)c4)CC3)c(=O)c2=O)CC1" ?
Solution: 92.2%

Problem: Consider the molecule "CC1(C)CC(=O)C(C=NCCc2ccc(S(N)(=O)=O)cc2)=C(O)C1" and give its measured viability.
Solution: 90%
